Origin of measurements: patent US20100099561A1

Test system: pigweed (Amaranthus retroflexus)
Assay: Test A postemergence, pigweed
Type: in vivo
Conditions: 500 g ai/ha, 0 to 100 scale (0 no effect, 100 complete control)
readout type: Plant response rating, Pigweed
Answer with the value's number alone.

Previously resolved entries follow.
molecule	Plant response rating, Pigweed
CC1(C)CC([S+]([O-])Cc2c(C(F)(F)F)nc3n(c2=O)CCCO3)=NO1 (centres unmarked)	30
CC1(C)CC([S+]([O-])Cc2c(C(F)(F)C(F)(F)F)nc3n(c2=O)CCS3)=NO1 (centres unmarked)	0
CC1(C)CC(S(=O)(=O)Cc2c(C(F)(F)F)nc3ccccn3c2=O)=NO1	0
CC1(C)CC(S(=O)(=O)Cc2c(C(F)(F)F)nc3n(c2=O)CCS3)=NO1	90
CC1(C)CC(S(=O)(=O)Cc2c(C(F)(F)Cl)nc3n(c2=O)CCC3)=NO1	40
Cn1c(=O)c(CS(=O)(=O)C2=NOC(C)(C)C2)nc2ccccc21	0
CC1(C)CC([S+]([O-])Cc2c(C(F)(F)Cl)nc3n(c2=O)CCCS3)=NO1 (centres unmarked)	0
CC1(C)CC(S(=O)(=O)Cc2c(C(F)(F)F)nc3n(c2=O)CCC3)=NO1	70

Query string: Provide Plant response rating, Pigweed value for the following molecule: "CC1(C)CC(S(=O)(=O)Cc2c(C(F)(F)F)nc3n(c2=O)CCCCC3)=NO1"
Result string: 50

Query string: Provide Plant response rating, Pigweed value for the following molecule: CC1(C)CC([S+]([O-])Cc2c(C(F)(F)F)nc3cnccn3c2=O)=NO1 (centres unmarked)
Result string: 0

Query string: Provide Plant response rating, Pigweed value for the following molecule: CC1(C)CC([S+]([O-])Cc2c(C(F)(F)Cl)nc3n(c2=O)CCC3)=NO1 (centres unmarked)
Result string: 10

Query string: Provide Plant response rating, Pigweed value for the following molecule: CC1(C)CC([S+]([O-])Cc2c(C(F)(F)F)nc3ccon3c2=O)=NO1 (centres unmarked)
Result string: 0

Query string: Provide Plant response rating, Pigweed value for the following molecule: "Cc1con2c(=O)c(CS(=O)(=O)C3=NOC(C)(C)C3)c(C(F)(F)F)nc12"
Result string: 10

Query string: Provide Plant response rating, Pigweed value for the following molecule: "CC1(C)CC(S(=O)(=O)Cc2c(C(F)(F)F)nc3cnccn3c2=O)=NO1"
Result string: 0

Query string: Provide Plant response rating, Pigweed value for the following molecule: "CCn1c(=O)c(CS(=O)(=O)C2=NOC(C)(C)C2)nc2cccnc21"
Result string: 0

Query string: Provide Plant response rating, Pigweed value for the following molecule: CC1(C)CC([S+]([O-])Cc2c(C(F)(F)F)nc3n(c2=O)CCCCC3)=NO1 (centres unmarked)
Result string: 0

Query string: Provide Plant response rating, Pigweed value for the following molecule: CCn1c(=O)c(C[S+]([O-])C2=NOC(C)(C)C2)nc2ccccc21 (centres unmarked)
Result string: 0

* * *

System: barnyardgrass (Echinochloa crus-galli)
Test: Test A preemergence, barnyardgrass
Assay type: in vivo
Details: 125 g ai/ha, 0 to 100 scale (0 no effect, 100 complete control)
readout type: Plant response rating, Barnyardgrass
Answer with the value's number alone.

Previously resolved entries follow.
compound	Plant response rating, Barnyardgrass
CC1(C)CC(S(=O)(=O)Cc2c(C(F)(F)F)nc3n(c2=O)CCCCC3)=NO1 [Compound 33]	40
CC1(C)CC(S(=O)(=O)Cc2c(C(F)(F)C(F)(F)F)nc3n(c2=O)CCCO3)=NO1 [Compound 55]	50
CC1(C)CC([S+]([O-])Cc2c(C(F)(F)Cl)nc3n(c2=O)CCCC3)=NO1 (centres unmarked) [Compound 32]	20
Cn1c(=O)c(CS(=O)(=O)C2=NOC(C)(C)C2)nc2ccccc21 [Compound 23]	20
CC1(C)CC([S+]([O-])Cc2c(C(F)(F)F)nc3n(c2=O)CCCCC3)=NO1 (centres unmarked) [Compound 34]	0

Query string: Provide Plant response rating, Barnyardgrass value for the following compound: CCn1c(=O)c(CS(=O)(=O)C2=NOC(C)(C)C2)nc2cccnc21 [Compound 57]
Result string: 0

Query string: Provide Plant response rating, Barnyardgrass value for the following compound: CC1(C)CC(S(=O)(=O)Cc2c(C(F)(F)F)nc3n(c2=O)CCS3)=NO1 [Compound 6]
Result string: 70

Query string: Provide Plant response rating, Barnyardgrass value for the following compound: CC1(C)CC(S(=O)(=O)Cc2c(C(F)(F)F)nc3ccsn3c2=O)=NO1 [Compound 16]
Result string: 50
